Ref: patent US20240247080A1

# protocol: Mouse PK after intravenous application
# Format: in vivo
# condition.label: plasma, mean residence time, intravenous 30-60 nmol/kg, male NMRI mice
Starred links: 1 amine or outer side, 2 acyl side, 3 side chain; linkers in the order of their positions; H or OH if unused. Non-standard residues stand in square brackets, D forms with d. Groups on a side chain read outwards from the residue. No end group written: not given here. *: point of attachment. C20 diacid = O=C(O)CCCCCCCCCCCCCCCCCCC(=O)*; C18 diacid = O=C(O)CCCCCCCCCCCCCCCCC(=O)*; γGlu = O=C(O)[C@H](CCC(=O)[*:2])N[*:1]; εLys = N[C@@H](CCCCN[*:1])C(=O)[*:2]; AEEA = NCCOCCOCC(=O)O; Aib = CC(C)(N)C(=O)O
Recorded MRT by entry
Give your result in h as a bare value.

Known results for substances:
Y[Aib]EGTFTSDYSI[Aib]LEKQAQ[Aib]AFVEWLIK([AEEA-AEEA-γGlu-γGlu-γGlu-γGlu-C18 diacid])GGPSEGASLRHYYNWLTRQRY-NH2 [Compound 297] = 7.5
Y[Aib]EGTFTSDYSI[Aib]LEKQAQ[Aib]AFVEWLIK([εLys-γGlu-γGlu-γGlu-γGlu-γGlu-γGlu-γGlu-C20 diacid])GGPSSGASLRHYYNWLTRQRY-NH2 [Compound 225] = 13

Lab note: next substance to report on.
Exam item: Name the recorded MRT of the substance listed here: H-Y[Aib]EGTFTSDYSI[Aib]LEKQAQ[Aib]EFVEWLIK([AEEA-AEEA-γGlu-γGlu-γGlu-γGlu-C18 diacid])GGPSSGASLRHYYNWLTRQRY-NH2 [Compound 145]
Marked response: 8
